# Test system: MCF7
# method: Antiproliferative activity against human MCF7 cells assessed as reduction in cell viability by MTT assay
# Assay type: functional, cell-based
Would you kindly list IC50 for each of these compounds?
# answer = value followed by unit

# count of solved cases: 3
compound	readoutType	measuredResult
C/C1=C\[C@@H](C)CC[C@H]2O[C@@H](C3=C(O)C(=O)C=C4O[C@](O)(C=C43)[C@@H](C)C[C@H](C)C1)[C@H](C)[C@@H](O)[C@H]2C	IC50	5.1 µM
CSC1=C2C3=CC(=O)C(O)=C2[C@@H]2O[C@H](CC[C@H](C)/C=C(\C)C[C@@H](C)C[C@H](C)[C@]1(O)O3)[C@H](C)[C@H](O)[C@H]2C	IC50	2.3 µM
CC(=O)N[C@@H](CSC1=C2C3=CC(=O)C(O)=C2[C@@H]2O[C@H](CC[C@H](C)/C=C(\C)C[C@@H](C)C[C@H](C)[C@]1(O)O3)[C@H](C)[C@H](O)[C@H]2C)C(=O)O	IC50	13 µM

Now for the compound whose IC50 we want.
// lookup IC50 for COc1cccc2c1C(=O)c1c(O)c3c(c(O)c1C2=O)C[C@@](O)(C(=O)CO)C[C@@H]3O[C@H]1C[C@H](N)[C@H](O)[C@H](C)O1 [DOXORUBICIN]
0.8 µM

* * *

# Test system: MGC-803
# method: Antiproliferative activity against human MGC803 cells assessed as reduction in cell viability by MTT assay
# Type: functional, cell-based
Hi there, I'd appreciate the recorded IC50 for every entry that follows.
Numbers only, in µM.

smilesRepresentation	IC50 (µM)
CSC1=C2C3=CC(=O)C(O)=C2[C@@H]2O[C@H](CC[C@H](C)/C=C(\C)C[C@@H](C)C[C@H](C)[C@]1(O)O3)[C@H](C)[C@H](O)[C@H]2C	8.9

I need IC50 for every entry listed below, if you could help.
1. COc1cccc2c1C(=O)c1c(O)c3c(c(O)c1C2=O)C[C@@](O)(C(=O)CO)C[C@@H]3O[C@H]1C[C@H](N)[C@H](O)[C@H](C)O1
2. CC(=O)N[C@@H](CSC1=C2C3=CC(=O)C(O)=C2[C@@H]2O[C@H](CC[C@H](C)/C=C(\C)C[C@@H](C)C[C@H](C)[C@]1(O)O3)[C@H](C)[C@H](O)[C@H]2C)C(=O)O
3. C/C1=C\[C@@H](C)CC[C@H]2O[C@@H](C3=C(O)C(=O)C=C4O[C@](O)(C=C43)[C@@H](C)C[C@H](C)C1)[C@H](C)[C@@H](O)[C@H]2C

3.6
7.1
3.3

* * *

# Tested on: Staphylococcus aureus
# method: Antibacterial activity against Staphylococcus aureus 745524 by CLSI based two-fold serial dilution method
# Assay type: functional
Could you please report measured MIC for the items listed next?

A selection of reference data follows.
smilesRepresentation	readoutType	measuredResult
C/C1=C\[C@@H](C)CC[C@H]2O[C@@H](C3=C(O)C(=O)C=C4O[C@](O)(C=C43)[C@@H](C)C[C@H](C)C1)[C@H](C)[C@@H](O)[C@H]2C	MIC	1 µg/mL
NC[C@H]1O[C@H](O[C@H]2[C@H](O)[C@@H](O[C@H]3O[C@H](CO)[C@@H](O)[C@H](N)[C@H]3O)[C@H](N)C[C@@H]2N)[C@H](O)[C@@H](O)[C@@H]1O	MIC	64 µg/mL
CSC1=C2C3=CC(=O)C(O)=C2[C@@H]2O[C@H](CC[C@H](C)/C=C(\C)C[C@@H](C)C[C@H](C)[C@]1(O)O3)[C@H](C)[C@H](O)[C@H]2C	MIC	1 µg/mL

Alright, here's another molecule for you.
Lab note: need MIC for `CC(=O)N[C@@H](CSC1=C2C3=CC(=O)C(O)=C2[C@@H]2O[C@H](CC[C@H](C)/C=C(\C)C[C@@H](C)C[C@H](C)[C@]1(O)O3)[C@H](C)[C@H](O)[C@H]2C)C(=O)O` on Staphylococcus aureus, anyone have it?
2 µg/mL
